Source: patent US20230286973A1

procedure_text: Liver Microsome Stability Assay (rat)
recorded_conditions: rat liver microsomes, with NADPH, 1.0 uM compound
reported_metric: Liver Microsome Stability (Multiple Species): Rat - % Remaining after 30 min w/NADPH (%)

Consider the worked cases shown below.
CN(C)CCOc1ccc(N2CCC[C@@H]2c2csc(NC(=O)c3cccn3Cc3ccnc(F)c3)n2)cc1
27.9
N#CCc1ccccc1Cn1cccc1C(=O)Nc1nc([C@H]2CCCN2c2ccccc2)cs1
1.23
O=C(Nc1nc([C@H]2CCCN2c2ccc(OC3CS(=O)(=O)C3)cc2)cs1)c1cccn1Cc1ccnc(F)c1
24.2

1 = CCc1ccc(N2CCC[C@@H]2c2csc(NC(=O)c3cccn3CC3CCOCC3)n2)cn1
2 = O=C(Nc1nc([C@H]2CCCN2c2ccccc2)cs1)c1cccn1CCCC1CCOC1 (stereo partly drawn)
Query :: Between the entries labeled 1 and 2 , whose measured Liver Microsome Stability (Multiple Species): Rat - % Remaining after 30 min w/NADPH is lower? Answer format: the label of the selected item.
Result :: 1

----------
Tested on: IL-2-FL/Gaussia Luciferase
procedure_text: Dox Induced IL2-FL-Gluc Assay
Assay type: cell-based
recorded_conditions: ratio of IL2FLGluc IC50 to PD1ssGluc IC50
reported_metric: 24 hr Dox Inducible IL2FLGluc 293FRT/TO: IL2/PD1
Reply: number alone, nothing else.

Consider the worked cases shown below.
CC(=O)N1CC(CCc2ccc(N3CCC[C@@H]3c3csc(NC(=O)c4cccn4Cc4ccnc(F)c4)n3)cc2)C1
2.8
O=C(Nc1nc(/C=C/c2ccon2)cs1)c1cccn1Cc1ccncc1
12
Cc1cc(C(=O)Nc2nc([C@H]3CCCN3c3ccccc3)cs2)n(Cc2ccncc2)c1
2.9

Lab note: next compound to report on.
Query :: Give IL-2-FL/Gaussia Luciferase 24 hr Dox Inducible IL2FLGluc 293FRT/TO: IL2/PD1 for CN(C)C(=O)N1CC(Oc2ccc(N3CCC[C@@H]3c3csc(NC(=O)c4cccn4Cc4ccnc(F)c4)n3)cc2)C1
Result :: 2.1

----------
Test system: TNFα-FL/Gaussia Luciferase
procedure_text: Dox Induced TNFα-FL-Gluc Assay
Format: cell-based
recorded_conditions: ratio of TNFaFLGluc IC50 to PD1ssGluc IC50
reported_metric: 24 hr Dox Inducible TNFaFLGluc 293FRT/TO: TNF/PD1
Reply: number alone, nothing else.

Consider the worked cases shown below.
NC(=O)N1CC(Oc2ccc(N3CCC[C@@H]3c3csc(NC(=O)c4cccn4Cc4ccnc(F)c4)n3)cc2)C1
43.1
O=C(Nc1nc(/C=C/c2cn(-c3ccccc3)cn2)cs1)c1cccn1Cc1ccnc(F)c1
809
CN1CC(OC(=O)Nc2ccc(N3CCC[C@@H]3c3csc(NC(=O)c4cccn4Cc4ccnc(F)c4)n3)cc2)C1
20.3
O=C(Nc1nc([C@H]2CCCN2c2ccc(OC3CCN(C(=O)CF)CC3)cc2)cs1)c1cccn1Cc1ccnc(F)c1
12.4
O=C(Nc1nc([C@H]2CCCN2c2ccc(OC3CCOCC3)cc2)cs1)c1cccn1Cc1ccncc1
13.7
O=C(Nc1nc(/C=C/C2CCc3ccccc3N2)cs1)c1cccn1Cc1ccncc1 (stereo not drawn)
23.9
CC(C)c1nc(/C=C/c2csc(NC(=O)c3cccn3Cc3ccncc3)n2)co1
36.6
CNC(=O)c1ccc(N2CCC[C@@H]2c2csc(NC(=O)c3cccn3Cc3ccncc3)n2)cc1
26.6

Query :: Quick check: 24 hr Dox Inducible TNFaFLGluc 293FRT/TO: TNF/PD1 of CC1CCCc2c(/C=C/c3csc(NC(=O)c4cccn4Cc4ccnc(F)c4)n3)ncn21 (stereo not drawn) ?
Result :: 1640

Query :: Quick check: 24 hr Dox Inducible TNFaFLGluc 293FRT/TO: TNF/PD1 of O=C(Nc1nc([C@H]2CCCN2c2ccc(OC3CCN(C(=O)C(F)(F)F)CC3)cc2)cs1)c1cccn1Cc1ccnc(F)c1 ?
Result :: 10.9

Query :: Quick check: 24 hr Dox Inducible TNFaFLGluc 293FRT/TO: TNF/PD1 of CC(C)n1cncc1/C=C/c1csc(NC(=O)c2cccn2Cc2ccncc2)n1 ?
Result :: 5.83

Query :: Quick check: 24 hr Dox Inducible TNFaFLGluc 293FRT/TO: TNF/PD1 of Cc1cn(C(C)C)nc1/C=C/c1csc(NC(=O)c2cccn2Cc2ccncc2)n1 ?
Result :: 19.5

Query :: Quick check: 24 hr Dox Inducible TNFaFLGluc 293FRT/TO: TNF/PD1 of CC(=O)Nc1ccc(N2CCC[C@@H]2c2csc(NC(=O)c3cc(C)cn3Cc3ccnc(F)c3)n2)cc1 ?
Result :: 18.7

----------
procedure_text: Liver Microsome Stability Assay (rat)
recorded_conditions: rat liver microsomes, with NADPH, 1.0 uM compound
reported_metric: Liver Microsome Stability (Multiple Species): Rat - % Remaining after 30 min w/NADPH (%)

Cc1ccnc(/C=C/c2csc(NC(=O)c3cccn3Cc3ccncc3)n2)c1 [Compound E1]
0.33
CC(CCC#N)n1cccc1C(=O)Nc1nc([C@H]2CCCN2c2ccccc2)cs1 (stereo partly shown)
7.22

A = O=C(Nc1nc([C@H]2CCCN2c2ccccc2)cs1)c1cccn1CCc1nnn[nH]1
B = CC(=O)N1CCC(Cc2ccc(N3CCC[C@@H]3c3csc(NC(=O)c4cccn4Cc4ccnc(F)c4)n3)cc2)CC1
Query :: When their Liver Microsome Stability (Multiple Species): Rat - % Remaining after 30 min w/NADPH values are compared, which is larger, A or B ? Answer format: the label of the selected item.
Result :: B
(B: 16.8%, A: 3.26%)

----------
Test system: multiple myeloma cell line NCI-H929
procedure_text: H929 Cell Viability Assay
Assay type: cell-based, human
recorded_conditions: Homo sapiens, NCI-H929, 48 h, NCI-H929 cells, Celltiter-Glo
pEC50: −log10 of the molar value.
reported_metric: pEC50

CC(=O)N1CCC(Oc2ccc(N3CCC[C@@H]3c3csc(NC(=O)c4cccn4Cc4ccncc4)n3)cc2)CC1 [Compound A7]
6.30

P = CC(=O)Nc1cc(F)c(N2CCC[C@@H]2c2csc(NC(=O)c3cccn3Cc3ccnc(F)c3)n2)c(F)c1 [Compound A96]
Q = COc1ccc(O[C@H]2CC[C@@H](c3csc(NC(=O)c4cccn4Cc4ccncc4)n3)CC2)nc1 [Compound E35]
Query :: Between the entries labeled P and Q , whose measured pEC50 is lower? Answer format: the label of the selected item.
Result :: Q

a = CC1CCCn2cnc(/C=C/c3csc(NC(=O)c4cccn4Cc4ccnc(F)c4)n3)c21 (stereo not drawn) [Compound B102]
b = CNc1ccc(N2CCC[C@@H]2c2csc(NC(=O)c3cccn3Cc3ccncc3)n2)cc1 [Compound A15]
Query :: When their pEC50 values are compared, which is larger, a or b ? Answer format: the label of the selected item.
Result :: b

P = N#CCCCCn1cccc1C(=O)Nc1nc([C@H]2CCCN2c2ccccc2)cs1 [Compound C1]
Q = COC(=O)Nc1ccc(N2CCC[C@@H]2c2csc(NC(=O)c3cccn3Cc3ccnc(F)c3)n2)nc1 [Compound A175]
R = O=C(Nc1nc([C@H]2CCCN2c2ccc(OC3CCS(=O)(=O)CC3)cc2)cs1)c1cccn1Cc1ccnc(F)c1 [Compound A138]
S = O=C(Nc1nc([C@H]2CCCN2c2ccc(OC3CNC3)cc2)cs1)c1cccn1Cc1ccnc(F)c1 [Compound A85]
T = C[C@H](O)c1ccc(N2CCC[C@@H]2c2csc(NC(=O)c3cccn3Cc3ccnc(F)c3)n2)cc1 [Compound A112]
Query :: # rank_down: sort by pEC50, max first Rank them, then answer with their labels in that order.
Result :: Q, T, R, S, P

a = CN(C)c1ccc(N2CCC[C@@H]2c2csc(NC(=O)c3cccn3Cc3ccncc3)n2)cc1 [Compound A16]
b = CC(=O)Nc1ccc(N2CCC[C@@H]2c2csc(NC(=O)c3cc(C)cn3Cc3ccnc(F)c3)n2)cc1 [Compound A164]
c = NC(=O)N1CC(Oc2ccc(N3CCC[C@@H]3c3csc(NC(=O)c4cccn4Cc4ccnc(F)c4)n3)cc2)C1 [Compound A130]
d = O=C(Nc1nc([C@H]2C[C@@H](OCCO)CN2c2ccccc2)cs1)c1cccn1Cc1ccncc1 [Compound E32]
e = CS(=O)(=O)Nc1ccc(N2CCC[C@@H]2c2csc(NC(=O)c3cccn3Cc3ccnc(F)c3)n2)cc1 [Compound A118]
Query :: # rank_down: sort by pEC50, max first Rank them, then answer with their labels in that order.
Result :: a, b, c, e, d
(a: 6.92, b: 6.56, c: 6.14, e: 5.75, d: 4.60)

a = O=C(Nc1nc([C@H]2CCCN2c2ccc(OC3CSC3)cc2)cs1)c1cccn1Cc1ccnc(F)c1 [Compound A157]
b = Cc1cc(C(=O)Nc2nc([C@H]3CCCN3c3ccc(NC(=O)N(C)C)cc3)cs2)n(Cc2ccnc(F)c2)c1 [Compound A163]
Query :: When their pEC50 values are compared, which is larger, a or b ? Answer format: the label of the selected item.
Result :: b

1 = COCc1ccc(N2CCC[C@@H]2c2csc(NC(=O)c3cccn3Cc3ccncc3)n2)cc1 [Compound A48]
2 = CC(=O)N1CCC(Nc2ccc(N3CCC[C@@H]3c3csc(NC(=O)c4cccn4Cc4ccnc(F)c4)n3)cc2)CC1 [Compound A147]
3 = COc1ccc(O[C@H]2CC[C@H](c3csc(NC(=O)c4cccn4Cc4ccncc4)n3)CC2)nc1 [Compound E34]
Query :: # rank_down: sort by pEC50, max first Rank them, then answer with their labels in that order.
Result :: 1, 2, 3

1 = NC(=O)c1ccc(N2CCC[C@@H]2c2csc(NC(=O)c3cccn3Cc3ccncc3)n2)cc1 [Compound A19]
2 = O=C(Nc1nc([C@H]2CCCN2c2ccc([N+](=O)[O-])cc2)cs1)c1cccn1Cc1ccncc1 [Compound A27]
Query :: Between the entries labeled 1 and 2 , whose measured pEC50 is lower? Answer format: the label of the selected item.
Result :: 2
